Tested on: BRG-1 (Homo sapiens)
Construct: made in house; host or cells: High Five insect cells
Sequence (P51532 whole entry): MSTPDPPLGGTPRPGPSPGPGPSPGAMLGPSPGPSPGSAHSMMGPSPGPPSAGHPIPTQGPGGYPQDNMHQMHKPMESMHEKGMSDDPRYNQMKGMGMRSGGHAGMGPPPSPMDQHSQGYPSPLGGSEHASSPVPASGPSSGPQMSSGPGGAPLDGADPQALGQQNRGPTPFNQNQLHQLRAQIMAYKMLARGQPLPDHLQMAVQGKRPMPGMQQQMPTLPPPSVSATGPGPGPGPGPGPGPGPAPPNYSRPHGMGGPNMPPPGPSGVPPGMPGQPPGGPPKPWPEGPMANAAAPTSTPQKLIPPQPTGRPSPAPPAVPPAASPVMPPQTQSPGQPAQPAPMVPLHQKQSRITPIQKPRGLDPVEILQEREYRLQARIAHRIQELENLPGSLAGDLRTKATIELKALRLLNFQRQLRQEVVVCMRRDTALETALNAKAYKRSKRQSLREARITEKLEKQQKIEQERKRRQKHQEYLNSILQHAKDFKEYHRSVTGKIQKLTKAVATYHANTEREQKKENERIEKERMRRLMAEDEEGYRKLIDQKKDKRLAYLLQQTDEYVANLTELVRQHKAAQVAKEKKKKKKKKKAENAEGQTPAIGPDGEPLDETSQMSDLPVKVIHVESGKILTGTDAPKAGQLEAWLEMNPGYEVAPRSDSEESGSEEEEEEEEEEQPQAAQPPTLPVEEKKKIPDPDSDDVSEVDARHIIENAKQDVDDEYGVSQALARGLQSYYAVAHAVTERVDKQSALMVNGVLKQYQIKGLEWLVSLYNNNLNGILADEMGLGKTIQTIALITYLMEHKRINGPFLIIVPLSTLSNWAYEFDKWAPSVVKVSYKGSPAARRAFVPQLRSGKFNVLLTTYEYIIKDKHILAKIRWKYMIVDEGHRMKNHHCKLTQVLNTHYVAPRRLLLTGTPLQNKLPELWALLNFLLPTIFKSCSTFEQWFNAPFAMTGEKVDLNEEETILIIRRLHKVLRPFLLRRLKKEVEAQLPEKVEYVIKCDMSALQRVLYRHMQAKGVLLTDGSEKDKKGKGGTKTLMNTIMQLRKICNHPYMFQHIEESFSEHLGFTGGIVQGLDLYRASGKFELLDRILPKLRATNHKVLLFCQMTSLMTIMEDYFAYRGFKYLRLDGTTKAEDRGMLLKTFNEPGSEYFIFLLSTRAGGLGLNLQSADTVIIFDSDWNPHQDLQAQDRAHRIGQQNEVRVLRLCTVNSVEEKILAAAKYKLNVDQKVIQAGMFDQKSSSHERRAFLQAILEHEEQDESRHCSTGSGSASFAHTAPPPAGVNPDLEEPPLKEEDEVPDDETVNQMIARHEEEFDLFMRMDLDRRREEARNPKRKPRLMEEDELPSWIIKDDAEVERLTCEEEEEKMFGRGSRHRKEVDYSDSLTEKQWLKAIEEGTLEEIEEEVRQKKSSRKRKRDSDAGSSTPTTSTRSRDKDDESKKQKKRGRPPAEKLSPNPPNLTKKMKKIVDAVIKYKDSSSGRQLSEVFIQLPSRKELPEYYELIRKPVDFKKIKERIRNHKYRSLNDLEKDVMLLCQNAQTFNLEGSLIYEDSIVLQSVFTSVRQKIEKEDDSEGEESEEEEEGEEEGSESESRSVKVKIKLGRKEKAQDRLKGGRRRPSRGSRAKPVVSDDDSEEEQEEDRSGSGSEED
Assay info: ATPase catalytic activity of BRG-1, ADP-Glo in vitro biochemical assay
Condition summary: ATPase catalytic activity, 30 nM BRG-1, 400 μM ATP, read-out: BRG1 IP50 (μM)*
Property: IC50

Exercise: GET /values?readout=IC50&item= "CC(C)(C)[C@H](NC(=O)c1ccn(S(C)(=O)=O)c1)C(=O)Nc1nc(-c2cccc(-c3ccncc3)c2)cs1"
Key: > 1 µM

Exercise: Would you kindly repeat that for "COC(C)(C)C#Cc1cccc(-c2csc(NC(=O)CNC(=O)c3ccn(S(C)(=O)=O)c3)n2)c1" ?
Key: > 0.01 µM

The reported measurements were obtained from patent US20230079819A1.
